The origin of these recorded values is patent US20150105252A1.

Tested on: corn
EXPERIMENT_DESCRIPTION: Test C preemergence
Assay type: in vivo, Zea mays
CONDITION_DETAILS: preemergence, 31 g ai/ha; visual rating, scale 0 to 100 (0 no effect, 100 complete control), 13 to 15 days
Corn plant response rating strictly less than 30 = 1. Otherwise -1.

                               smiles_entry   tgt  category_label
0   CCONC(=O)c1cc(CC)n(Cc2ccnc(OC(F)F)c2)n1  corn              -1
1  CCNC(=O)c1cc(CC)n(Cc2cc(C(F)(F)F)nn2C)n1  corn               1
2  O=C(NCC(F)(F)F)c1cc(CCF)n(Cc2ccnc(C(F)(F)F)c2)n1  corn               1
3  O=C(NC1CC1)c1cc(CCCl)n(Cc2ccnc(C(F)(F)F)c2)n1  corn               1
4  CCc1cc(C(=O)NOC(C)C)nn1Cc1ccnc(OC(F)F)c1  corn               1
5  CCCc1cc(C(=O)NCC(F)(F)F)nn1Cc1ccnc(OC(F)F)c1  corn               1
6  CCCc1cc(C(=O)NC(C)C)nn1Cc1cc(C(F)(F)F)nn1C  corn              -1

====

Tested on: common ragweed
EXPERIMENT_DESCRIPTION: Test A postemergence
Assay type: in vivo, Ambrosia elation
CONDITION_DETAILS: postemergence, 125 g ai/ha, about 10 days, visual rating on 0 to 100 scale (0 no effect, 100 complete control)
MEASURED_QUANTITY: Common Ragweed plant response rating

>>> print(df.to_string())
                                   molecule  measured_value
0  CCCc1cc(C(=O)NC2CC2)nn1Cc1ccnc(OC(F)F)c1 [Compound 205]              80
1  CCCc1cc(C(=O)NCC(F)(F)F)nn1Cc1ccnc(OC(F)F)c1 [Compound 127]              30
2  CCONC(=O)c1cc(CC)n(Cc2cc(OC(F)F)nn2C)n1 [Compound 207]               0
3  CCc1cc(C(=O)NC2CC2)nn1Cc1cc(C(F)(F)F)no1 [Compound 124]              20
4  CCONC(=O)c1cc(CC)n(Cc2cc(C(F)(F)F)nn2C(C)C)n1 [Compound 208]               0

====

Tested on: pigweed
EXPERIMENT_DESCRIPTION: Test A postemergence
Type: in vivo, Amaranthus retroflexus
CONDITION_DETAILS: Postemergence, 125 g ai/ha; 0 to 100 scale, 0 no effect, 100 complete control
Label Fulfilled when Pigweed plant response rating is at or above 90; otherwise label Not fulfilled.

                                   compound      tgt  category_label
0  CCc1cc(C(=O)NCC(F)(F)F)nn1Cc1ccnc(SC(F)(F)F)c1 [Compound 214]  pigweed       Fulfilled
1  CCONC(=O)c1cc(CC)n(Cc2cc(C(F)(F)F)nn2C(C)C)n1 [Compound 208]  pigweed   Not fulfilled
2  CCc1cc(C(=O)NCC(F)(F)F)nn1Cc1cc(C(F)(F)C(F)(F)F)nn1C [Compound 227]  pigweed       Fulfilled
3  CCONC(=O)c1cc(CC)n(Cc2cc(OC(F)F)nn2C)n1 [Compound 207]  pigweed   Not fulfilled
4  CCc1cc(C(=O)NCC(F)(F)F)nn1Cc1nc(C(F)(F)F)no1 [Compound 184]  pigweed   Not fulfilled
5  CCc1cc(C(=O)NCC(F)(F)F)nn1Cc1cc(C(F)(F)F)nn1C(C)C [Compound 213]  pigweed   Not fulfilled

====

Test system: crabgrass, large
EXPERIMENT_DESCRIPTION: Test A preemergence
Format: in vivo, Digitaria sanguinalis
CONDITION_DETAILS: preemergence, 500 g ai/ha, visual injury after approx. 10 days, 0 to 100 scale (0 no effect, 100 complete control)
MEASURED_QUANTITY: Crabgrass, Large plant response rating

                                smiles_entry  measured_value
 0  CCc1cc(C(=O)NCC(F)(F)C(F)(F)F)nn1Cc1ccnc(C(F)(F)F)c1             100
 1  CCc1cc(C(=O)NC(C)C)nn1Cc1cc(C(F)(F)F)nn1CC             100
 2  CCNC(=O)c1cc(CC)n(Cc2cc(C(F)(F)F)nn2C)n1             100
 3  CCc1cc(C(=O)NCC(F)(F)F)nn1Cc1nc(C(F)(F)F)no1             100
 4  CCCNC(=O)c1cc(CC)n(Cc2nc(C(F)(F)F)nn2C)n1             100
 5  CCCc1cc(C(=O)NC(C)C)nn1Cc1ccnc(C(F)(F)F)c1             100
 6  CCCNC(=O)c1cc(CC)n(Cc2cc(C(F)(F)F)nn2CC)n1             100
 7       CCc1cc(C(=O)NC2CC2)nn1Cc1ccnc(Br)c1             100
 8  CCc1cc(C(=O)NC2CC2)nn1Cc1cccc(C(F)(F)F)n1              20
 9  CCc1cc(C(=O)Nc2ccc(F)cc2)nn1Oc1ccnc(C(F)(F)F)c1              10
10  CCCCNC(=O)c1cc(I)n(Cc2cccc(C(F)(F)F)c2)n1              60
11  CCc1cc(-c2ccc(C(F)(F)F)cc2)nn1Cc1ccnc(C(F)(F)F)c1             100
12  COCc1cc(C(=O)NCC(F)(F)F)nn1Cc1cc(C(F)(F)C(F)(F)F)nn1C              90

====

System: galium
EXPERIMENT_DESCRIPTION: Test C postemergence
Type: in vivo, Galium aparine
CONDITION_DETAILS: postemergence; 125 g ai/ha; scale 0 to 100, 0 no effect, 100 complete control
Entries and their Plant response rating, Galium values follow.
MEASURED_QUANTITY: Plant response rating, Galium

>>> df
                                   compound              measured_quantity  measured_value
0  CCCNC(=O)c1cc(CCF)n(Cc2ccnc(C(F)(F)F)c2)n1 [Compound 177]  Plant response rating, Galium              80
1  CCc1cc(C(=O)NOC(C)C)nn1Cc1cccc(OC(F)(F)F)c1 [Compound 70]  Plant response rating, Galium              75
2  CCCc1cc(C(=O)NCC(F)(F)F)nn1Cc1ccnc(OC(F)F)c1 [Compound 127]  Plant response rating, Galium              70
3  CCCNC(=O)c1cc(CC)n(Cc2ccnc(C(F)(F)F)c2)n1 [Compound 75]  Plant response rating, Galium              65
4  CCc1cc(C(=O)NCC(F)(F)F)nn1Cc1nc(C(F)(F)F)nn1C [Compound 107]  Plant response rating, Galium              90
5  CCCNC(=O)c1cc(OCC)n(Cc2ccnc(OC(F)F)c2)n1 [Compound 136]  Plant response rating, Galium              60
6  CCCNC(=O)c1cc(CC)n(Cc2nc(C(F)(F)F)nn2C)n1 [Compound 109]  Plant response rating, Galium              65
7  CCOc1cc(C(=O)NOC(C)C)nn1Cc1ccnc(C(F)(F)F)c1 [Compound 153]  Plant response rating, Galium              70
8  CCc1cc(C(=O)NC2CC2)nn1Cc1ccnc(Br)c1 [Compound 220]  Plant response rating, Galium              60

====

System: ducksalad
EXPERIMENT_DESCRIPTION: Test C flooded paddy test
Type: in vivo, Heteranthera limosa
CONDITION_DETAILS: Flood, 62 g ai/ha; scale 0 to 100 (0 no effect, 100 complete control)
Excerpt: At time of treatment, test pots were flooded to 3 cm above the soil surface, treated by application of test compounds directly to the paddy water, and then maintained at that water depth for the duration of the test. Treated plants and controls were maintained in a greenhouse for 13 to 15 days, after which time all species were compared to controls and visually evaluated. […] A dash (-) response means no test result.
Entries and their Plant response rating, Ducksalad values follow.
MEASURED_QUANTITY: Plant response rating, Ducksalad

>>> df
                                   compound  measured_value
0  CCCc1cc(C(=O)NC2CC2)nn1Cc1cccc(OC(F)(F)F)c1 [Compound 34]              10
1  CCONC(=O)c1cc(CC)n(Cc2cccc(OC(F)(F)F)c2)n1 [Compound 72]              70
2  Cc1cc(C(=O)NCC(F)(F)F)nn1Cc1cccc(OC(F)(F)F)c1 [Compound 5]               0
3  CCCCNC(=O)c1cc(CC)n(Cc2ccnc(C(F)(F)F)c2)n1 [Compound 141]              80
4  CCc1cc(C(=O)NCC2CC2)nn1Cc1cccc(OC(F)(F)F)c1 [Compound 53]               0
5  CCCc1cc(C(=O)NCC)nn1Cc1cccc(OC(F)(F)F)c1 [Compound 33]              10
6  CCc1cc(C(=O)NOC(C)C)nn1Cc1cccc(OC(F)(F)F)c1 [Compound 70]              40
